subject of test: Gal(b1-4)GlcNAc(b1-2)Man(a1-6)Man(b1-4)GlcNAc(b1-4)GlcNAc
protocol details: glycan array binding signal (z-score within array); higher = stronger binding
applied conditions: glycan notation: IUPAC condensed, linker removed
Shown is part of a subset that was picked to be rich in the strongest signals.
Property: glycan array binding signal (z-score); scope: individual binders

PNA (Arachis hypogaea), P02872 (protein) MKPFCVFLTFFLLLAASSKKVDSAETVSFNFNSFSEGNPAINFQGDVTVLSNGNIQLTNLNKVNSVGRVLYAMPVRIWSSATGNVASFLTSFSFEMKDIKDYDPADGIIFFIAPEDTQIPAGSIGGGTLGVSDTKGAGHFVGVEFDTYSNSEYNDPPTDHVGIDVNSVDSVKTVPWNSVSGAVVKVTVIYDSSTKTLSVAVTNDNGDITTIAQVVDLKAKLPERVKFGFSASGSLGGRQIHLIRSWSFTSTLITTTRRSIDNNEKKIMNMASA | -0.171
LBL-152 (Laetiporus bicolor), B0D650 (protein) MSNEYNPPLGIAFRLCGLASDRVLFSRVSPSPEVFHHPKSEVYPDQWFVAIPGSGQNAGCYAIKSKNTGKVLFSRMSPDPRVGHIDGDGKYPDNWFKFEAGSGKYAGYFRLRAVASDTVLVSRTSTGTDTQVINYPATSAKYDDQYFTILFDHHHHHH | -0.156

Turning now to a further binder:
Which glycan array binding signal (z-score) value belongs to Eosinophil cationic protein (ECP) (Homo sapiens), P12724 (protein) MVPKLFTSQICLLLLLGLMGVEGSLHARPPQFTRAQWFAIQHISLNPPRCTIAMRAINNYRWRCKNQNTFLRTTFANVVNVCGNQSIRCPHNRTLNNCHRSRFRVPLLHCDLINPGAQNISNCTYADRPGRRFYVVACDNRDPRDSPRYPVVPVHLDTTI ? -0.08
